# Test system: DU-145 prostate
# ASSAY_TEXT: NCI tumour cell line growth inhibition, 48 h; in the data active means GI50 below about 0.43 µM; inactive means the rest
Labels: YES = active, NO = inactive

[[record]]
compound = "Cc1nc(Nc2cccnc2)sc1C(=O)/C=C/c1ccc(Cl)cc1"
class_name = "NO"

[[record]]
compound = "CCCCCCCCNCCC[C@@H](C)[C@H]1CC[C@H]2[C@@H]3[C@H](OCCCN)C[C@H]4C[C@H](OCCCN)CC[C@]4(C)[C@H]3C[C@H](OCCCN)[C@]12C"
class_name = "NO"

[[record]]
compound = "Cc1c(-c2ccnc(N)n2)c2c(n1Cc1ccccc1)C(=O)c1ccccc1C2=O"
class_name = "NO"

[[record]]
compound = "O=c1/c(=C\\c2ccc(F)cc2)sc2n1C(c1ccc(F)cc1)C1=C(N=2)c2ccc3ccccc3c2OCC1 (configuration not stated)"
class_name = "NO"

[[record]]
compound = "Cc1c2cc(Cl)c3ccccc3c2c[n+]2ccccc12"
class_name = "NO"

[[record]]
compound = "Cn1cc(-c2ccc3nnc(Sc4ccc5ncccc5c4)n3n2)cn1"
class_name = "NO"

[[record]]
compound = "COc1cc2c(cc1OCCCCCCN1CCN(CC(=O)Nc3ccc(Cl)cc3C(=O)c3ccccc3Cl)CC1)N=CC1CCCN1C2=O (configuration not stated)"
class_name = "YES"


----------
The following molecules are listed with their measured TGI values.
# System: ACHN renal
# ASSAY_TEXT: NCI tumour cell line growth inhibition, 48 h
TEST_READOUT: TGI

[[record]]
molecule = "CCOc1c(N=Nc2ccccc2Cl)c(-c2ccccc2)nn1C(=S)S"
test_readout = "TGI"
val = "> 100 µM"

[[record]]
molecule = "Cc1nnc2n1N=C(c1ccc(Cl)cc1Cl)/C(=C/c1ccc(-c3ccc([N+](=O)[O-])cc3Cl)o1)S2"
test_readout = "TGI"
val = "34.6 µM"

[[record]]
molecule = "COc1cccc(N=N/C(=N\\NC(=O)c2ccc(C)cc2)c2ccc(N(CCC#N)CCC#N)cc2C)c1"
test_readout = "TGI"
val = "> 100 µM"

[[record]]
molecule = "NNC(=O)C(=O)N/N=C1\\CCC(=O)CC1C(=O)CCC(=O)Nc1ccc(Cl)cc1 (stereo not given)"
test_readout = "TGI"
val = "> 100 µM"

[[record]]
molecule = "COc1cc2cc(C(=O)N3CC(COS(C)(=O)=O)c4ccc(O)cc43)[nH]c2c(OC)c1OC (stereo not given)"
test_readout = "TGI"
val = "< 0.0001 µM"

[[record]]
molecule = "COC(=O)CC(NC(=O)OCc1ccccc1)C(C(=O)OCc1ccccc1)C(C)(OC)OC (stereo not given)"
test_readout = "TGI"
val = "> 100 µM"

[[record]]
molecule = "CN=C(/N=c1\\ssc(=NC)n1C)N(C)C"
test_readout = "TGI"
val = "> 100 µM"

[[record]]
molecule = "C1CC2CN(CCCN3CCOCC3)C(C1)O2 (stereo not given)"
test_readout = "TGI"
val = "> 100 µM"

[[record]]
molecule = "COc1ccc(/C(Cl)=C/c2cc(OC)ccc2OC)cc1"
test_readout = "TGI"
val = "> 100 µM"

[[record]]
molecule = "C#Cc1nc2ccccc2c(=O)[nH]1"
test_readout = "TGI"
val = "1.32 µM"


----------
# Tested on: UACC-62 melanoma
# ASSAY_TEXT: NCI tumour cell line growth inhibition, 48 h
The following compounds are listed with their measured GI50 values.
TEST_READOUT: GI50

[[record]]
record_smiles = "c1ccc(-c2nc(N3CCOCC3)c3c4c(sc3n2)CCCCCC4)nc1"
val = "3.44 µM"

[[record]]
record_smiles = "S=c1nc(N/N=C/c2ccco2)c2cn[nH]c2[nH]1"
val = "33.8 µM"

[[record]]
record_smiles = "NCCOCCOCCNc1nc(-c2ccc(Cl)cc2)nc(N2CCN(c3ccccn3)CC2)n1"
val = "1.99 µM"

[[record]]
record_smiles = "CCN(c1cc(-c2ccc(CN3CCOCC3)cc2)cc(C(=O)NCc2c(C)cc(C)[nH]c2=O)c1C)C1CCOCC1"
val = "16 µM"

[[record]]
record_smiles = "c1ccc2c(-c3nc(-c4c[nH]c5ccncc45)cs3)c[nH]c2c1"
val = "1.67 µM"

